Overview of reported ED90 across a group of molecules:
Species: Mus musculus
experiment_description: Blood schizonticidal activity in mice model with Plasmodium berghei k-173 infection was determined
Assay type: functional
Could you kindly put the unit after your number?

For orientation, consider the following solved cases.
molecule | ED90
C[C@@H]1CCC2[C@]34OOC(C)(CCC13)O[C@H]4O[C@]2(C)CO (single isomer, unassigned) | 25 mg/kg
CCO[C@H]1O[C@@H]2O[C@@]3(C)CC[C@H]4[C@H](C)CC[C@@H]([C@H]1C)[C@@]24OO3 | 1.25 mg/kg
CC1OC2OC3(C)CCC4[C@H](C)CCC([C@H]1C)[C@@]24OO3.O (single isomer, unassigned) | 10 mg/kg
C[C@@H]1CCC2[C@@H](C)[C@@H](OC[C@]3(C)OC4OC5(C)CCC6[C@@H](C)CCC3[C@]46OO5)OC3OC4(C)CCC1[C@]32OO4 (single isomer, unassigned) | 1.25 mg/kg
C[C@@H]1CCC2[C@@H](C)[C@H](OC[C@@]3(C)OC4OC5(C)CCC6[C@H](C)CCC3[C@@]46OO5)OC3OC4(C)CCC1[C@]32OO4 (single isomer, unassigned) | 2.5 mg/kg

# evaluate next
Query: Please give the documented ED90 of C[C@@H]1CCC2[C@]34OOC(C)(CCC13)O[C@H]4O[C@]2(C)C=O (single isomer, unassigned)
Response: 25 mg/kg
